Tested on: HCC-2998 colon
TEST_PROTOCOL: NCI tumour cell line growth inhibition, 48 h
Listing: TGI of selected compounds

>>> endpoint_value("CN(C)c1ccc(/C=C(/C(=O)O)c2csc(-c3nc(/C(=C\\c4ccc(N(C)C)cc4)C(=O)O)cs3)n2)cc1")
"> 100 µM"
>>> endpoint_value("COc1nc(SC)nc2c1C(O)n1c(nc3ccccc31)S2 (centres undefined)")
"> 100 µM"
>>> endpoint_value("CCOC(=O)CC1c2ccc(O)cc2OC(=O)C1c1ccc(N)cc1 (centres undefined)")
"> 100 µM"

Now for a further compound.
QUERY: Fill in TGI for record CCOC(=O)C(NC(=O)CC)(C(F)(F)F)P(=O)(OCC)OCC (centres undefined)
RESULT: > 100 µM

----------
System: SK-MEL-2 melanoma
TEST_PROTOCOL: NCI tumour cell line growth inhibition, 48 h
MEASUREMENT_LABEL: TGI

Some compounds with known TGI results, for comparison:
>>> endpoint_value("O=C(N/N=C\\c1cc(Cl)ccc1O)c1ccncc1")
"> 100 µM"
>>> endpoint_value("O=C1c2ccccc2C2(O)Nc3c(ccc4ccccc34)C12O (stereo unspecified)")
"> 100 µM"
>>> endpoint_value("c1ccc(C2=NOC3COc4ccccc4OCC23)cc1 (stereo unspecified)")
"> 100 µM"
>>> endpoint_value("NCCSCC(N)C(=O)O (stereo unspecified)")
"> 497 µM"
>>> endpoint_value("CCOC(=O)C1(C(C)=O)OC(=O)c2cnccc21 (stereo unspecified)")
"> 100 µM"

Now for a further compound.
QUERY: Fill in TGI for record `O=C(O)c1cc2cc(OCc3ccccc3)ccc2[nH]1`
RESULT: > 100 µM

----------
Test system: BT-549 breast
TEST_PROTOCOL: NCI tumour cell line growth inhibition, 48 h
MEASUREMENT_LABEL: TGI

Some molecules with known TGI results, for comparison:
>>> endpoint_value("NCc1ccc(O)c(O)c1")
"> 100 µM"
>>> endpoint_value("COc1cc(/C=C2\\CCC(C)C3=C(c4cc(OC)c(OC)c(OC)c4)C(C#N)=C(N)OC32)cc(OC)c1OC (stereo not drawn)")
"> 100 µM"

Now for a further molecule.
QUERY: Fill in TGI for record CC(Cc1ccc(O)cc1)NCC(O)c1ccc(O)c(O)c1 (stereo not drawn)
RESULT: > 100 µM

----------
Test system: OVCAR-3 ovarian
TEST_PROTOCOL: NCI tumour cell line growth inhibition, 48 h
MEASUREMENT_LABEL: TGI

>>> endpoint_value("CO[C@@H]1[C@H](O)CC[C@]2(CO2)[C@H]1[C@@]1(C)O[C@@H]1CC=C(C)C")
"> 200 µM"
>>> endpoint_value("CC(Cc1ccc(O)cc1)NCC(O)c1ccc(O)c(O)c1 (centres undefined)")
"> 100 µM"
>>> endpoint_value("O=C1c2ccccc2C2(O)Nc3c(ccc4ccccc34)C12O (centres undefined)")
"> 100 µM"

Now for a further compound.
QUERY: Fill in TGI for record `COc1ccc(/C=C/C(=O)Oc2ccc(/C=C3\CCCCC3=O)cc2)cc1`
RESULT: > 100 µM

----------
Tested on: SN12C renal
TEST_PROTOCOL: NCI tumour cell line growth inhibition, 48 h
MEASUREMENT_LABEL: TGI (µM)
API: value field is a number in µM; no unit string.

Some molecules with known TGI results, for comparison:
>>> endpoint_value("CC(C)(C)OC(=O)CCC1NC(=O)[C@@H]2Cc3c([nH]c4ccccc34)C(C3CCCCC3)N2C1=O (some centres not stated)")
65.6
>>> endpoint_value("Cn1ccnc1C(=O)/C=C/c1ccc(C(=O)Nc2ccccc2F)cc1")
9.56
>>> endpoint_value("CCOC(=O)/C=C\\[C@H]1OC(C)(C)O[C@H]1[C@H](O)[C@H]1COC(C)(C)O1")
33.5
>>> endpoint_value("O=C(CCl)Nc1ccc2c(Nc3cc(O)ccc3Cl)ncnc2c1")
4.06
>>> endpoint_value("O=c1ccc2ccc(O)c3c4c(=O)ccc5ccc(O)c(c1c23)c54")
4.37
>>> endpoint_value("C=C1C(=O)C2=C[C@H]1C[C@H](O)C(=O)[C@]1(C)CCCC(C)(C)[C@H]1C[C@H]2O")
4.07
>>> endpoint_value("O=[N+]([O-])c1ccc(-c2nc(/C=N/N3CCCCC3)cs2)o1")
68.1
>>> endpoint_value("CCN1C(Cl)=NS(=O)(=O)c2ccccc21")
37.9

Now for a further molecule.
QUERY: Fill in TGI for record `Cc1c(-c2ccc(O)c(O)c2)oc(=O)c2c(O)cc(O)cc12`
RESULT: 59.1

----------
Tested on: SN12C renal
TEST_PROTOCOL: NCI tumour cell line growth inhibition, 48 h
MEASUREMENT_LABEL: TGI

>>> endpoint_value("O=c1c2c3c(sc2n2c(CCl)nnc2n1Cc1ccccc1)CCCC3")
"3.86 µM"
>>> endpoint_value("c1ccc(C[n+]2ccc3c(c2)CCCC3)cc1")
"> 100 µM"
>>> endpoint_value("CC(=O)O[C@H]1C(=O)[C@@]2(C)[C@H]([C@H](OC(=O)c3ccccc3)[C@]3(O)C[C@H](OC(=O)[C@H](O)[C@@H](NC(=O)c4ccoc4)c4ccccc4)C(C)=C1C3(C)C)[C@]1(OC(C)=O)CO[C@@H]1C[C@@H]2O")
"> 100 µM"

QUERY: Fill in TGI for record CC(C)=CCc1ccc2[nH]c3c(c2c1)C(=O)C(=O)C(C)=C3C(O)C(C)O (stereo unspecified)
RESULT: 45.8 µM

----------
System: RXF 393 renal
TEST_PROTOCOL: NCI tumour cell line growth inhibition, 48 h
Listing: TGI of selected compounds
API: value field is a number in µM; no unit string.

>>> endpoint_value("OC(c1ccc(F)cc1)(c1ccc(F)cc1)C1CC1")
67.7

Now for a further compound.
QUERY: Fill in TGI for record `O=C1C=CC2(C=C1)CCC(=O)O2`
RESULT: 28.3

----------
Listing: TGI of selected molecules
Test system: RPMI-8226 leukemia
TEST_PROTOCOL: NCI tumour cell line growth inhibition, 48 h

Some molecules with known TGI results, for comparison:
>>> endpoint_value("CCOC(=O)C(=O)Nc1cccc(Cl)c1C")
"> 100 µM"
>>> endpoint_value("OC(c1ccc(F)cc1)(c1ccc(F)cc1)C1CC1")
"59.2 µM"

QUERY: Fill in TGI for record CC12CC[C@@H]3c4cc5c(cc4CC[C@H]3[C@@H]1CCC2O)oc1cc(F)ccc15 (some centres not stated)
RESULT: > 100 µM

QUERY: Fill in TGI for record `COc1ccc(O)cc1C=O`
RESULT: > 100 µM

QUERY: Fill in TGI for record `COC(=O)N1c2ccc3c(nc(Cc4ccccc4)n3[C@H]3CCC[C@H](C(=O)O)C3)c2CC[C@@H]1C`
RESULT: 80.9 µM

QUERY: Fill in TGI for record CC#C[C@@]1(O)CCCCC1O (some centres not stated)
RESULT: > 100 µM

QUERY: Fill in TGI for record CC(O)C(C(=O)O)N(CC1(O)OCC(O)C(O)C1O)N=O (configuration not stated)
RESULT: > 100 µM

----------
System: SK-MEL-28 melanoma
TEST_PROTOCOL: NCI tumour cell line growth inhibition, 48 h
Listing: TGI of selected compounds

>>> endpoint_value("COC(=O)c1ccccc1C1CN=NC12Cc1c(C)cccc1C2=O (stereo not drawn)")
"> 100 µM"
>>> endpoint_value("Cc1c(CN)c(C)c(CN)c(C)c1CN")
"> 100 µM"
>>> endpoint_value("O=C1C(C(Nc2ccccc2)c2ccccc2)=C([O-])c2ccccc21.O=C1C(C(Nc2ccccc2)c2ccccc2)=C([O-])c2ccccc21.[Co+2] (stereo not drawn)")
"> 100 µM"
>>> endpoint_value("CN(C)CC/C(=N\\Nc1c(F)c(F)c(F)c(F)c1F)c1ccccc1")
"> 100 µM"
>>> endpoint_value("COc1ccc2c(c1)-c1c(c3cc(OC)ccc3n1CCN1CCOCC1)CC2")
"> 100 µM"
>>> endpoint_value("C=CCCCC(=O)CCC(=O)OCC1O[C@@H](O[C@@H]2C(O)[C@@H](OC(C)=O)C(C)O[C@H]2O[C@H](CC=C)CCCCC)C(O)[C@@H](OC(=O)/C(C)=C/C)[C@@H]1OC(=O)/C=C/c1ccccc1 (stereo partly drawn)")
"> 50 µM"

Now for a further compound.
QUERY: Fill in TGI for record `c1cc2ccc3cc2cc1CNCCN1CCNCc2ccc4ccc(cc4c2)CNCCN(CCNC3)CCNCc2ccc3ccc(cc3c2)CNCC1`
RESULT: 6.32 µM

----------
Test system: NCI/ADR-RES ovarian
TEST_PROTOCOL: NCI tumour cell line growth inhibition, 48 h
MEASUREMENT_LABEL: log10(TGI) (log10 of the value in µM)
The base-10 logarithm of TGI, taken with TGI in µM, is what appears here.

Some molecules with known log10(TGI) results, for comparison:
>>> endpoint_value("OC(c1ccc(F)cc1)(c1ccc(F)cc1)C1CC1")
1.76
>>> endpoint_value("O=C1N=C(c2c(-c3[nH]c(=O)c4ccc(Br)cc4c3O)c(O)c3ccccc3c2O)C(=O)c2cc(Br)ccc21")
0.03
>>> endpoint_value("O=c1[nH]c2ccccc2nc1CBr")
1.71
>>> endpoint_value("c1ccc2c(c1)Sc1ccccc1N2CC1CN2CCC1CC2 (stereo not given)")
1.39
>>> endpoint_value("O=C(Nc1ccc(Cl)cc1)Oc1ccc(C(=S)Nc2ccc(Br)cc2)cc1")
1.79
>>> endpoint_value("Clc1ccc(CN2COc3c(ccc4cccnc34)C2)cc1Cl")
0.33
>>> endpoint_value("Cc1cc(C)n(-c2nc3ccccc3c(=O)[nH]2)n1")
1.14
>>> endpoint_value("C=C(C)C(=O)OC1C[C@H](COC(C)=O)C2CC=C(C)C2C2OC(=O)C(=C)[C@H]12 (stereo not given in full)")
0.79
>>> endpoint_value("COc1ccc2oc(=O)cc(C3c4ccc([nH]4)C(c4cc(=O)oc5ccc(OC)cc45)c4ccc([nH]4)C(c4cc(=O)oc5ccc(OC)cc45)c4ccc([nH]4)C(c4cc(=O)oc5ccc(OC)cc45)c4ccc3[nH]4)c2c1 (stereo not given)")
1.39
>>> endpoint_value("Oc1cccc2cc(Cl)cnc12")
1.48

QUERY: Fill in log10(TGI) for record CC(C)(C)C1CCC2c3c([nH]c4ccccc34)C3C(=O)N(c4ccc(C(=O)O)cc4)C(=O)C3C2C1 (stereo not given)
RESULT: 1.56

QUERY: Fill in log10(TGI) for record COC(O)C(=O)c1c2c(cc3c1CCC3)CCCC2 (stereo not given)
RESULT: 1.79

QUERY: Fill in log10(TGI) for record O=P(Nc1ccccc1)(Oc1ccccc1)N1CCN(c2ccccc2)CC1 (stereo not given)
RESULT: 1.59
